protocolText: Partition coefficient (Log Po/w) of direct dyes
conditionParameters: octanol/water partition coefficient, table of dyes
measuredEndpoint: Log Po/w
Lab note: jot the number down without any unit.

O=[N+]([O-])c1cc(N(CCO)CCO)ccc1NCCO [HC BLUE NO. 2] :: −0.32

## Task Entry O=C([O-])c1c(Cl)c(Cl)c(Cl)c(Cl)c1-c1c2cc(Br)c(=O)c(Br)c-2oc2c(Br)c([O-])c(Br)cc12.[Na+].[Na+] [ACIDE RED 92] has what Log Po/w?
## Result 3

## Task Entry O=[N+]([O-])c1cc(N(CCO)CCO)ccc1NCCCO [HC VIOLET NO 2] has what Log Po/w?
## Result 0.608

## Task Entry CNc1cc(OCC(O)CO)ccc1[N+](=O)[O-] (stereo not drawn) [2-NITRO-5-GLYCERYL METHYLANILINE] has what Log Po/w?
## Result 0.89

## Task Entry Nc1ccc(O)cc1[N+](=O)[O-] [4-AMINO-3-NITROPHENOL] has what Log Po/w?
## Result 1.19

## Task Entry CCN(Cc1cccc(S(=O)(=O)[O-])c1)c1ccc(C(=C2C=CC(=[N+](CC)Cc3cccc(S(=O)(=O)[O-])c3)C=C2)c2ccccc2S(=O)(=O)[O-])cc1.[Na+].[Na+] [ACID BLUE 9] has what Log Po/w?
## Result −0.32

## Task Entry C[N+](C)(C)c1ccc2ccc(O)c(N=Nc3ccc(N)c([N+](=O)[O-])c3)c2c1.[Cl-] [BASIC BROWN 17] has what Log Po/w?
## Result −0.15

## Task Entry Cc1ccc(Nc2ccc(Nc3ccc(C)cc3S(=O)(=O)[O-])c3c2C(=O)c2ccccc2C3=O)c(S(=O)(=O)[O-])c1.[Na+].[Na+] [ACID GREEN 25] has what Log Po/w?
## Result 5.71

## Task Entry O=C([O-])C1=NN(c2ccc(S(=O)(=O)[O-])cc2)C(=O)C1N=Nc1ccc(S(=O)(=O)[O-])cc1.[Na+].[Na+].[Na+] (stereo not drawn) [ACID YELLOW 23] has what Log Po/w?
## Result −10.17

## Task Entry O=[N+]([O-])c1cc(O)ccc1NCCO [3-NITRO-P-HYDROXYETHYLAMINOPHENOL] has what Log Po/w?
## Result 0.21

## Task Entry Nc1ccc(NCCO)c([N+](=O)[O-])c1 [HC RED NO. 3] has what Log Po/w?
## Result −0.42

## Task Entry O=S(=O)(O)c1cc(S(=O)(=O)O)c2c(/N=N\c3ccc(S(=O)(=O)O)c4ccccc34)c(O)ccc2c1 [ACID RED18] has what Log Po/w?
## Result 1.63

## Task Entry Cc1cc(N)c([N+](=O)[O-])cc1NCCO [HC VIOLET NO 1] has what Log Po/w?
## Result 0.67

## Task Entry CN(C)c1ccc(/N=N/c2n(C)cc[n+]2C)cc1 [BASIC RED 51, Basic Red 51] has what Log Po/w?
## Result −1.97

## Task Entry Cn1cc[n+](C)c1N=Nc1ccc(N)cc1.[Cl-] [BASIC ORANGE 31, Basic Orange 31] has what Log Po/w?
## Result −2.31

## Task Entry NCCNc1ccc(OCCO)cc1[N+](=O)[O-] [HC ORANGE NO. 2] has what Log Po/w?
## Result 0.13

----------
protocolText: Partition coefficient (Log Po/w) of direct dyes
conditionParameters: octanol/water partition coefficient, table of dyes
Classes (Log Po/w): bottom: < 1; middle: ≥ 1 and < 2; top: ≥ 2

Solved entries:
Cc1cc(N(CCO)CCO)ccc1N=Nc1ccc(N)cc1 [HC YELLOW NO. 7] :: top
O=C1c2ccccc2C(=O)c2c(NCC(O)CO)ccc(NCC(O)CO)c21 (centres unmarked) [HC BLUE NO. 14] :: top
Nc1cc(S(=O)(=O)[O-])cc2cc(S(=O)(=O)[O-])c(N=Nc3ccccc3)c(O)c12.[Na+].[Na+] [ACID RED 33] :: bottom
CN(N=Cc1cc[n+](C)cc1)c1ccccc1 [BASIC YELLOW 87, Basic Yellow 87] :: bottom

## Task Bin this entry: CC1=CC(=C(c2cc(C)c(N)c(C)c2)c2c(Cl)cccc2Cl)C=C(C)C1=N.O=P(O)(O)O [HC BLUE NO. 15]
## Result top

## Task Bin this entry: O=S(=O)([O-])c1ccc(N=Nc2c(O)ccc3ccccc23)cc1.[Na+] [ACID ORANGE 7]
## Result middle

## Task Bin this entry: CC1=NN(c2ccccc2)C(=O)C1N=Nc1cccc([N+](C)(C)C)c1.[Cl-] (centres unmarked) [BASIC YELLOW 57]
## Result bottom

## Task Bin this entry: C[N+](C)(C)c1cccc(N=C2C=C(N)c3c(O)c(Br)cc(N)c3C2=O)c1.[Cl-] [BASIC BLUE 99]
## Result middle

## Task Bin this entry: COS(=O)(=O)[O-].C[N+]1(CCCNc2ccc(O)c3c2C(=O)c2ccccc2C3=O)CCOCC1
## Result bottom

----------
The reader will find reported Log Po/w values listed item by item below.
protocolText: Partition coefficient (Log Po/w) of direct dyes
conditionParameters: octanol/water partition coefficient, table of dyes
Lab note: jot the number down without any unit.

Observe how each entry below is paired with its result.
Nc1c(N=Nc2ccc([N+](=O)[O-])cc2)c(S(=O)(=O)[O-])cc2cc(S(=O)(=O)[O-])c(N=Nc3ccccc3)c(O)c12.[Na+].[Na+] [ACID BLACK 1] :: 1.2
Cc1ccc(Nc2ccc(O)c3c2C(=O)c2ccccc2C3=O)c(S(=O)(=O)[O-])c1.[Na+] [ACIDE VIOLET 43] :: 3.1

## Task Entry Nc1ccc(N)c2c1C(=O)c1ccccc1C2=O [DISPERSE VIOLET 1] has what Log Po/w?
## Result 3

## Task Entry COc1ccc([N+](=O)[O-])c(NCCN)c1.Cl [HC YELLOW NO. 9] has what Log Po/w?
## Result 1.3

## Task Entry CCN(CC)c1ccc2c(-c3ccc(S(=O)(=O)[O-])cc3S(=O)(=O)[O-])c3ccc(=[N+](CC)CC)cc-3oc2c1.[Na+] [ACID RED 52] has what Log Po/w?
## Result 1.3
